Molecular target: IRAK-4 (Homo sapiens)
Sequence (Q9NWZ3 whole entry): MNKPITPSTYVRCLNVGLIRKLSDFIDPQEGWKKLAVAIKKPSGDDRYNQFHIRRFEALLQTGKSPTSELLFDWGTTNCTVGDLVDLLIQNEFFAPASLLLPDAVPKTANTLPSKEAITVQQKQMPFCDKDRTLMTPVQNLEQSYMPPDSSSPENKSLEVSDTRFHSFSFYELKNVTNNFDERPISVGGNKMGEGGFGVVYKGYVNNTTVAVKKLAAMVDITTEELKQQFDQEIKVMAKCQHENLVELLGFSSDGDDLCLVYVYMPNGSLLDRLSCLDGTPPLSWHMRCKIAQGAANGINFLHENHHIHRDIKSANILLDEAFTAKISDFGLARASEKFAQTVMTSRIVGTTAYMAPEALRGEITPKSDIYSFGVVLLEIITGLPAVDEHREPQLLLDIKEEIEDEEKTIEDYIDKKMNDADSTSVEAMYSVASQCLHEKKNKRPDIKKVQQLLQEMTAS
Test: IRAK-4 ELISA, OCI-Ly10 degradation
Assay type: cell-based
Design: endogenous in cells
Conditions: OCI-Ly10 cells, treated overnight
The entries below are paired with their reported DC50.

Use the examples below as a reference point.
compound	experimental.target	DC50
CC(C)Oc1cc2c(cc1NC(=O)c1cnn3cccnc13)CN(C1CCN(Cc3ccc4c(c3)CN(C3CCC(=O)NC3=O)C4=O)CC1)C2=O (stereo not drawn) [Example 10]	IRAK-4 (Homo sapiens)	≥ 100 nM
CN(C1CN(c2ccc3c(c2)CN(C2CCC(=O)NC2=O)C3=O)C1)[C@H]1CC[C@H](n2cc3cc(NC(=O)c4cnn5cccnc45)c(OCC4CC4)cc3n2)CC1 (stereo partly drawn) [Example 339]	IRAK-4 (Homo sapiens)	< 10 nM

Now for a further compound.
INPUT: Which measured DC50 value corresponds to O=C1CCC(N2Cc3cc(OCCN4CCC(n5cc6cc(NC(=O)c7cnn8cccnc78)c(OCC7CC7)cc6n5)CC4)ccc3C2=O)C(=O)N1 (stereo not drawn) [Example 122] ?
OUTPUT: < 10 nM

Values compiled from patent US20230099344A1.
